Molecular target: T1, PUF4 RNA-binding domain (Saccharomyces cerevisiae, UniProt P25339 537-888)
T1 sequence: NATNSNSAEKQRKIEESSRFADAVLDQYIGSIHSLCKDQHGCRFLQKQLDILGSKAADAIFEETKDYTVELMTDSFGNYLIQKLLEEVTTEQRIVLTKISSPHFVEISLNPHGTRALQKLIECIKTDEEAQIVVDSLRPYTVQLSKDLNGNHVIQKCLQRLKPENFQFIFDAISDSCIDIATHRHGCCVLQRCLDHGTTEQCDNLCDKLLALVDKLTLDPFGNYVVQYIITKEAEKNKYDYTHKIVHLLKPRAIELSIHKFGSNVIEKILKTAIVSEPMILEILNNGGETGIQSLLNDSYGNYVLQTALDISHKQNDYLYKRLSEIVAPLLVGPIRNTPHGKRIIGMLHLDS
Assay: Mg; RNA-MaP; 20 mM Na-HEPES pH 7.4, 30 mM KOAc, 0.75 mM MgCl2, 0.1% Tween-20, 5% glycerol, 0.1 mg/mL BSA, 2 mM DTT; 25 C; 0.0125-409.6 nM protein
Conditions: tags: N-His6-TEV cleaved; C-SNAP kept, Cy3B-labelled; label: tethered on chip by stalled RNA polymerase
Recorded Kd, one value per entry.

binder	Kd
Ic_S4_P5E.1_K5.1_C5.1_H5.1_A5.1_[T5A]_[T6C]_[A7T]_F5.1_[T8C]_[T9C]_[A10G]_T5.1 (ssRNA) RNA: UUUGACAACUGAUCGUUCUUUCUUGUAACUCCGUUCUUUCUCGAUCAGUUGUCUUU	> 2300 nM

Return reported Kd. Input binder: UCUCUUCAACACUUAUUAUCUCUCUU (ssRNA) [Id_ii_S1_P5E.4_K5.3_C5.2_[T-1A]_H5.3_A5.1_F5.1_T5.2_[A12C]]
> 2300 nM

Return reported Kd. Input binder: Id_ii_S4_P4E.4_K4.3_C4.2_[C-2T]_[T-1C]_H4.3_A4.1_F4.1_T4.2_[G10T]_[T11C] (ssRNA) RNA: UUUGACAACUGAUCGUUCUUUCUUCACACUAUUAUCUUCUUUCUCGAUCAGUUGUCUUU
> 2300 nM

Return reported Kd. Input binder: Id_ii_S2_P4E.2_K4.1_C4.2_[T-1C]_H4.1_A4.1_F4.1_T4.2_[G10C] (ssRNA) RNA: UUUGAUUAAUAUGAUAUCGUUCUUUCUCCUGUAUAUUACUUUCUUUCUCGAUAUCAUAUUAAUCUUU
0.482 nM

Return reported Kd. Input binder: Id_ii_S4_P3E.2_K3.1_C3.2_[T-1A]_H3.1_A3.1_F3.1_T3.2_[T9G]_[A10C] (ssRNA) RNA: UUUGACAACUGAUCGUUCUUUCUCAUGUAUAUAGCUUCUUUCUCGAUCAGUUGUCUUU
2.75 nM

Return reported Kd. Input binder: Id_iii_S2_P3E.7_K3.3_C3.3_[T-3A]_H3.3_A3.1_F3.1_T3.2 (ssRNA) RNA: UUUGAUUAAUAUGAUAUCGUUCUUUCUACUACACUAUAUAUUCUUUCUCGAUAUCAUAUUAAUCUUU
213 nM

Return reported Kd. Input binder: Id_ii_S2_P4E.2_K4.1_C4.2_[C-2A]_[T-1C]_H4.1_A4.1_F4.1_T4.2_[G10C] (ssRNA) RNA: UUUGAUUAAUAUGAUAUCGUUCUUUCUACUGUAUAUUACUUUCUUUCUCGAUAUCAUAUUAAUCUUU
1.25 nM
